For each record, write down the corresponding relative cell viability.
Tested on: IMR-90
Experiment: relative cell viability (ATPlite) vs untreated control (fraction); higher = less toxic
Settings: 1 µM; 72 h
The answer should be written as a number, with no unit following it.

Query: Could you share which relative cell viability value was measured for NC(=NN=Cc1ccc(-c2cccc([N+](=O)[O-])c2)o1)N[N+](=O)[O-] ?
Result: 1.01

Query: # input molecule: COC(=O)[C@]1(O)C[C@@H]2O[C@@]1(C)n1c3ccccc3c3c4c(c5c6ccccc6n2c5c31)C(=O)NC4 [K-252a, Nocardiopsis sp.] ; wanted: its relative cell viability
Result: 0.668

Query: Tell me the measured relative cell viability of O=[N+]([O-])/C=C/c1ccc2c(c1)OCO2 , please.
Result: 0.932

Query: Consider the molecule O=C1NC(=O)c2c1c1c3ccccc3n3c1c1c2c2ccccc2n1[C@H]1CC[C@@H]3O1 and give its measured relative cell viability.
Result: 1.04

Query: For the molecule O=S(=O)(c1c(O)c(Cl)cc(Cl)c1Cl)c1c(O)c(Cl)cc(Cl)c1Cl , what relative cell viability is on record?
Result: 0.988

* * *

System: K562
Assay: relative cell viability (ATPlite) vs untreated control (fraction); higher = less toxic
Conditions: 1 µM; 72 h
Define the label as 1.0 when relative cell viability is strictly less than 0.9 and as 0.0 in all remaining cases.

Query: For O=S(=O)(c1c(O)c(Cl)cc(Cl)c1Cl)c1c(O)c(Cl)cc(Cl)c1Cl , is the recorded relative cell viability below the cut-off of 0.9?
Result: 1.0

Query: Bench note: check whether COC(=O)[C@]1(O)C[C@@H]2O[C@@]1(C)n1c3ccccc3c3c4c(c5c6ccccc6n2c5c31)C(=O)NC4 [K-252a, Nocardiopsis sp.] shows relative cell viability below 0.9
Result: 1.0

Query: In the record for CC(C)(C)c1cc(C=C(C#N)C#N)cc(Br)c1O , is relative cell viability less than 0.9?
Result: 0.0

Query: Strictly below 0.9 in relative cell viability? NC(=NN=Cc1ccc(-c2cccc([N+](=O)[O-])c2)o1)N[N+](=O)[O-]
Result: 0.0

* * *

System: K562
Experiment: relative cell viability (ATPlite) vs untreated control, with imatinib (fraction); higher = less toxic
Settings: 1 µM; 72 h; imatinib 0.125 µM
Simple rule here: relative cell viability less than 0.8 is T, otherwise F.

Query: Lab note: relative cell viability threshold 0.8. Does this compound come in strictly under it? NC(=NN=Cc1ccc(-c2cccc([N+](=O)[O-])c2)o1)N[N+](=O)[O-]
Result: T

Query: Just wondering, is relative cell viability of COC(=O)[C@]1(O)C[C@@H]2O[C@@]1(C)n1c3ccccc3c3c4c(c5c6ccccc6n2c5c31)C(=O)NC4 [K-252a, Nocardiopsis sp.] below 0.8?
Result: T

Query: Quick check: does COc1ccc2c(c1)/C(=C/c1cnc[nH]1)C(=O)N2 have relative cell viability under 0.8?
Result: F

Query: Answer whether the compound O=S(=O)(c1c(O)c(Cl)cc(Cl)c1Cl)c1c(O)c(Cl)cc(Cl)c1Cl has relative cell viability strictly less than 0.8
Result: T

Query: Check if relative cell viability falls below 0.8 for O=[N+]([O-])/C=C/c1ccc2c(c1)OCO2 .
Result: T
